assay type: physicochemical
MEASURED METRIC: chromatographic logP
Lab note: record just the number, no unit beside it.

(Q) State the recorded chromatographic logP for this entry: COc1ccc(Cl)cc1Cn1nc(-c2sc(NC(=O)C(C)(C)C)nc2C)cc1C(=O)N1CCOCC1 [14h]
(A) 4.1

Read the next record carefully.
(Q) Any idea what chromatographic logP was measured for COc1ccc(Cl)cc1Cn1nc(-c2sc(NC(=O)C(C)(C)C)nc2C)cc1C(=O)NCCO [14j] ?
(A) 3.5
